# procedure details: Toxicity in ip dosed NMRI mouse
# Assay type: organism-based
# test settings: in vivo
endpoint name: LD50 (mg/kg)
Response body: numeric value in mg/kg, unit text excluded.

Lab note: COc1cc(N)c(Cl)cc1C(=O)CCC1CCN(CC2CCCCC2)CC1 gave LD50 of 75

---

# measured on: Cholinesterase (Equus caballus, UniProt P81908)
# Sequence (P81908 whole entry): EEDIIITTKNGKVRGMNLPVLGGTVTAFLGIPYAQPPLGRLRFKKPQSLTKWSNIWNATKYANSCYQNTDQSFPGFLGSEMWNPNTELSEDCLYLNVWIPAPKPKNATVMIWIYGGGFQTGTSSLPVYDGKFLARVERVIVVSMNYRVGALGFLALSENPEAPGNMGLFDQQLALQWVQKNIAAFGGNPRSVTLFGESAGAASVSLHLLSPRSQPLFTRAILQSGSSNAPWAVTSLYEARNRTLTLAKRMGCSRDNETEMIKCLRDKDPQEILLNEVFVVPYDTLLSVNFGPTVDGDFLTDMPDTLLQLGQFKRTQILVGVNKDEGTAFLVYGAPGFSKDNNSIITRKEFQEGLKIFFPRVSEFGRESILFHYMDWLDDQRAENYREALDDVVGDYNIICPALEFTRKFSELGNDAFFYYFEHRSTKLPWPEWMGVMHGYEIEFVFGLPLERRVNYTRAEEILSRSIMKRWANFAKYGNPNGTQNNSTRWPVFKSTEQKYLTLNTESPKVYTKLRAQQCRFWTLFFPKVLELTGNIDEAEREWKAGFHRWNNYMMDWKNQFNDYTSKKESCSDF
# procedure details: Inhibition of equine serum BuChE pre-incubated for 5 mins before butyrylthiocholine iodide substrate by Ellman' method
endpoint name: pIC50
Reminder that pIC50 is minus the log10 of a molar concentration.

compound: COc1cc(N)c(Cl)cc1C(=O)CCC1CCN(CC2CCCCC2C)CC1 (stereo unspecified)
pIC50: 5.36
//
compound: COc1cc(N)c(Cl)cc1C(=O)CCC1CCN(CC2CCCCCC2)CC1
pIC50: 5.40
//
compound: COc1cc(N)c(Cl)cc1C(=O)CCC1CCN(CCC2CCCCC2)CC1
pIC50: 5.20
//
compound: COc1cc(N)c(Cl)cc1C(=O)CCC1CCN(Cc2ccccc2)CC1
pIC50: 5.74
//
compound: COc1cc(N)c(Cl)cc1C(=O)CCC1CCN(CC2CCCC2)CC1
pIC50: 5.16

pIC50 measured on COc1cc(N)c(Cl)cc1C(O)CCC1CCN(CC2CCCCC2)CC1 (stereo unspecified) = 5.44

The recorded pIC50 for COc1cc(N)c(Cl)cc1C(=O)CCC1CCN(CC2CCCCC2)CC1 is 5.45

Record summary for COc1cc(N)c(Cl)cc1C(=O)OCC1CCN(CC2CCCCC2)CC1 : reported pIC50 = 5.39

Looking up COc1cc(N)c(Cl)cc1C(=O)CCC1CCN(Cc2cccnc2)CC1 , I see its pIC50 listed as 5.04

The recorded pIC50 for entry CO/N=C(\CCC1CCN(CC2CCCCC2)CC1)c1cc(Cl)c(N)cc1OC equals 5.13

The reported pIC50 of the compound COc1cc(N)c(Cl)cc1C(=O)CCC1CCN(CC2CC2)CC1 was 5.18

---

# Activity per record follows
# measured on: 5-hydroxytryptamine receptor 4 (Homo sapiens)
# procedure details: Agonist activity at HA-tagged 5-HT4R (unknown origin) expressed in COS7 cells assessed as cAMP accumulation by HTRF assay
# Type: functional, cell-based
# Parameters: concentration or dose not given beside the values
# test settings: COS-7
Numbers only; they are read as %.

structure as smiles: COc1cc(N)c(Cl)cc1C(=O)CCC1CCN(CC2CCCC2)CC1
measured on: 5-hydroxytryptamine receptor 4 (Homo sapiens)
endpoint name: Activity
assay value: 48

structure as smiles: COc1cc(N)c(Cl)cc1C(=O)CCC1CCN(CC2CCNCC2)CC1
measured on: 5-hydroxytryptamine receptor 4 (Homo sapiens)
endpoint name: Activity
assay value: 20

structure as smiles: COc1cc(N)c(Cl)cc1C(=O)CCC1CCN(Cc2ccccc2)CC1
measured on: 5-hydroxytryptamine receptor 4 (Homo sapiens)
endpoint name: Activity
assay value: 65

structure as smiles: COc1cc(N)c(Cl)cc1C(=O)CCC1CCN(CC2CCCCC2)CC1
measured on: 5-hydroxytryptamine receptor 4 (Homo sapiens)
endpoint name: Activity
assay value: 48.3

// COc1cc(N)c(Cl)cc1C(=O)CCC1CCN(CC2CCCCCC2)CC1 : Activity value = 58

---

Measured pKi (5-hydroxytryptamine receptor 4 (Cavia porcellus))
Scale: pKi equals -log10([C]), with [C] in mol/L.

Sample records with pKi:
compound: COc1cc(N)c(Cl)cc1C(=O)CCC1CCN(Cc2ccccc2)CC1
measured on: 5-hydroxytryptamine receptor 4 (Cavia porcellus)
Sequence (O70528 whole entry): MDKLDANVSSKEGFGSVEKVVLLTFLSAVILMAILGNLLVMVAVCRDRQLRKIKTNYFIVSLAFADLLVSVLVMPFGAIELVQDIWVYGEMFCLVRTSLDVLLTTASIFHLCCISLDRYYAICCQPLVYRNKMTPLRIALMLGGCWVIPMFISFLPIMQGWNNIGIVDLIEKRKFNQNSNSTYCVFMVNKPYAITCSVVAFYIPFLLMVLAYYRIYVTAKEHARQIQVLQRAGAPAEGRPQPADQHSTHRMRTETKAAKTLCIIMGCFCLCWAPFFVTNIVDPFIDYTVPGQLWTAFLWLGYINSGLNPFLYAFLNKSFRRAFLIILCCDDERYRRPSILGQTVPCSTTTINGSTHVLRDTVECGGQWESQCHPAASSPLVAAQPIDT
pKi: 7.84
--
compound: COc1cc(N)c(Cl)cc1C(=O)CCC1CCN(Cc2cccnc2)CC1
measured on: 5-hydroxytryptamine receptor 4 (Cavia porcellus)
pKi: 7.69
--
compound: COc1cc(N)c(Cl)cc1/C(CCC1CCN(CC2CCCCC2)CC1)=N/O
measured on: 5-hydroxytryptamine receptor 4 (Cavia porcellus)
pKi: 6.71
--
compound: COc1cc(N)c(Cl)cc1C(=O)CCC1CCN(Cc2ccncc2)CC1
measured on: 5-hydroxytryptamine receptor 4 (Cavia porcellus)
pKi: 7.69
--
compound: COc1cc(N)c(Cl)cc1C(=O)NCC1CCN(CC2CCCCC2)CC1
measured on: 5-hydroxytryptamine receptor 4 (Cavia porcellus)
pKi: 8.65

The compound COc1cc(N)c(Cl)cc1C(O)CCC1CCN(CC2CCCCC2)CC1 (configuration not stated) on 5-hydroxytryptamine receptor 4 (Cavia porcellus): pKi was 6.91

Item CCCCN1CCC(CCC(=O)c2cc(Cl)c(N)cc2OC)CC1 was tested on 5-hydroxytryptamine receptor 4 (Cavia porcellus); the reported pKi is 8.03
